Data origin: paper PMC9769551

- MEASUREMENT TARGET: AcrR (Escherichia coli BW25113)
- Sequence: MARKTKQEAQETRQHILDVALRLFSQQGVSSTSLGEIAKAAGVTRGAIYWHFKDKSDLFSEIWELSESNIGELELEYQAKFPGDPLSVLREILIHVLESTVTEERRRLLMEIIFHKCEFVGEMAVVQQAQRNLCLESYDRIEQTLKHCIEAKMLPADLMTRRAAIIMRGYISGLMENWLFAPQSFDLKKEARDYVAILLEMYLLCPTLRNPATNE
- ASSAY REMARKS: EMSA
- CONDITION NOTES: 10 mM Tris-HCl pH 7.5, 50 mM KCl, 1 mM DTT, 5 mM MgCl2, 1 ug poly(dI-dC), 0.05% NP-40, 5% glycerol, 20 uL with 25 fmol DNA (protein stock in 200 mM NaCl, 20 mM …)

# BIOSEQUENCE, binding
data = [
    ("GTGGACTAAATTATCGCCATTACTGCGCTTTAAATGACCTTTATGTTCAATATTTTTTCAATCTAGCAGTGGGTTTTCATTTTTGCAAACTCAATTTAACATTTGACAAACATTTAGTTTGCATACAGATTCGAATGGTGGTCATTATATTTTACGCTTTGATAACGAGCGGAAAACAAACCAAAGGCGAAGAATCATGGAAACCAATATCGTTGAAGTAGAGAAC (double strand) [puuAp 226 bp]", "binds"),
]

====

- MEASUREMENT TARGET: AcrR (Escherichia coli BW25113) (UniProt P0ACS9)
- Sequence: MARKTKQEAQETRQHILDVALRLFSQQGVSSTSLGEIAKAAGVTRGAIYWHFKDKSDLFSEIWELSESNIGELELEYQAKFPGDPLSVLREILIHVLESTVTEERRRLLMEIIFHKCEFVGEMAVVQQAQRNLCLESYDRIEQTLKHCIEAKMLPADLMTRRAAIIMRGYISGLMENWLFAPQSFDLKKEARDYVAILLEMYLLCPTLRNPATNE
- ASSAY REMARKS: EMSA
- CONDITION NOTES: 10 mM Tris-HCl pH 7.5, 50 mM KCl, 1 mM DTT, 5 mM MgCl2, 1 ug poly(dI-dC), 0.05% NP-40, 5% glycerol, 20 uL with 25 fmol DNA (protein stock in 200 mM NaCl, 20 mM …)
MEASUREMENT KIND: binding

# BIOSEQUENCE, VALUE REPORTED
data = [
    ("CAAAGTAAAGTGGTCAAGCCCCGCGCATAGCGCAAGCTTTGGCAGAAGAAAGGACTAAAGCGCGTTGCGCCAGTGCTGCTCACCTACGAGCAAGATAGTGGATGAGGTACGAAGATGGGTAAATGTAGAAAATAACGTCCTGAACAAATTGTCCATAATATTACAATTATCCGCAGTGTTGCTTCTCGTCATCGCGGATGATAATTGTCCTCGGTAGTTGAACACGCCTGATTTGTATCATAGCTTAAGAATTAACTCAAAATATTTTCACTTCTTTACCTGAGCG (double strand) [mdtUJIp 286 bp]", "binds"),
    ("TGTTCATATGTAAACCTCGAGTGTCCGATTTCAAATTGGTCAATGGTCAAAAGTTAATAAACCCATTGCTGCGTTTATATTATCGTCGTGCTATGGTACATACATTCACAAATGTATGTAAATCTAACGCCTGTAAATTCACGAACATATGGCACGAAAAACCAAACAAGAAGCGCAAG (double strand) [acrABp 179 bp]", "binds"),
]
